Below is a list of entries, each paired with its recorded TGI value.
tested on: K-562 leukemia; assay: NCI tumour cell line growth inhibition, 48 h
Starred links: 1 amine or outer side, 2 acyl side, 3 side chain; linkers in the order of their positions; H or OH if unused. Positions of bridges follow the written chain, without caps; N, C: chain ends. Non-standard residues stand in square brackets, D forms with d. Residues, ends and D or L forms follow the SMILES beside them. Chains are numbered I, II in the order given. Actinocin(9to1) = Cc1c2oc3c(C)ccc(C(=O)[*:1])c3nc-2c(C(=O)[*:2])c(N)c1=O; NMeY = CN[CH](Cc1ccc(O)cc1)C(=O)O; Sar = CNCC(=O)O

compound: O=[N+]([O-])c1cccc(C2=NN(c3ccccc3)C[N+](c3ccc(Br)cc3)=N2)c1
TGI: > 100 µM
--
compound: O=C1CCC(Cl)=CC2CCCN12 (configuration not stated)
TGI: > 100 µM
--
compound: CC(C)NC(=O)OCc1c(COC(=O)NC(C)C)c(-c2cc[n+](COC(=O)C3CC3)cc2)n2c1CCC2
TGI: > 100 µM
--
compound: COC(=O)/C=C(\C(=O)OC)C1C(=O)Oc2c(C)c(=O)c3ccccc3n21 (configuration not stated)
TGI: > 100 µM
--
compound: C[n+]1c2ccc(Cl)cc2nc2cc(-c3ccccc3)ccc21
TGI: 66.8 µM
--
compound: Cc1c2oc3c(C)ccc(C(=O)NC4C(=O)NC(C(C)C)C(=O)N5CCCC5C(=O)N(C)CC(=O)N(C)C(Cc5ccc(O)cc5)C(=O)OC4C)c3nc-2c(C(=O)NC2C(=O)NC(C(C)C)C(=O)N3CCCC3C(=O)N(C)CC(=O)N(C)C(Cc3ccc(O)cc3)C(=O)OC2C)c(N)c1=O (configuration not stated) (I: TVP[Sar][NMeY] / II: TVP[Sar][NMeY]; ester I:1-I:C, II:1-II:C; linker I:N-II:N via Actinocin(9to1); configuration not given here)
TGI: > 1 µM
--
compound: CC(C)(C)OC(=O)NC1CCCCC1NC(=O)C(=O)NC1CCCCC1NC(=O)OC(C)(C)C (configuration not stated)
TGI: > 100 µM
--
compound: O=c1[nH]nnc2c1sc1ncccc12
TGI: > 100 µM
--
compound: CC(=O)OC(OC(C)=O)c1ccc2ccc3cccc4ccc1c2c34
TGI: 96.2 µM
--
compound: CO/N=C(/C)c1cccc(Nc2cc(-n3nnc4ccccc43)nc3ccccc23)c1
TGI: > 100 µM

Ask | Quick one: TGI for `COc1ccc(/C=C2\CCNC2=O)cc1` ?
Reply | > 100 µM

Ask | Same lookup for OC(CC1SCCCS1)c1ccccc1 (configuration not stated) , please.
Reply | > 100 µM

Ask | Please do the same for `CC[As](CC)SC[C@H](C)C(=O)N1CCC[C@H]1C(=O)O` as well.
Reply | 0.0615 µM

Ask | Queued: CCOC1(OCC)C2C=CC1C(COS(=O)(=O)c1ccc(C)cc1)C2COS(=O)(=O)c1ccc(C)cc1 (configuration not stated)
Reply | > 100 µM

Ask | Subsequent entry: `CC(=O)c1ccccc1NP(=O)(c1ccccc1)c1ccccc1`
Reply | > 100 µM

Ask | And then `COc1ccc(/C=C\[N+](=O)[O-])cc1OC` , what is it?
Reply | > 100 µM

Ask | Try O=C(Nc1ccccc1)c1cc(S(=O)(=O)NC2=NC(c3ccccc3)c3cc(Cl)ccc3N2)c(SSc2cc(Cl)c(C(=O)Nc3ccccc3)cc2S(=O)(=O)NC2=NC(c3ccccc3)c3cc(Cl)ccc3N2)cc1Cl (configuration not stated) next.
Reply | > 100 µM

Data origin, for the record: PubChem BioAssay (NCI)
